Where do these numbers come from? They come from ChEMBL document CHEMBL3779781.

Assay: Cytotoxicity against human HepG2 cells by ATP bioluminescence assay
Type: cell-based
Conditions: read-out: TD50 (the source's name)
metric: CC50

Cc1cnc(Nc2ccc(C(=O)NCC3(c4nc(-c5ccccc5)cs4)CCOCC3)cc2)s1 | > 100 µM
O=C(NCC1(c2nc(-c3ccccc3)cs2)CCOCC1)c1ccc(Nc2nc3ccccc3s2)cc1 | 12.6 µM
O=C(NCC1(c2nc(-c3ccccc3)cs2)CCOCC1)c1ccc(-n2ccnc2)cc1 | > 100 µM
O=C(NCC1(c2nc(-c3ccccc3)cs2)CCOCC1)c1ccc(-n2cncn2)cc1 | > 100 µM
O=C(NCC1(c2nc(-c3ccccc3)cs2)CCOCC1)c1ccc(CN2CCCCC2)cc1 | 79.4 µM

Field: CC50. Fill in for each record below.
1. COc1ccc(C2(CNC(=O)c3ccc(Cn4nc(C)cc4C)cc3)CCOCC2)cc1
2. Cc1cc(C)n(Cc2ccc(C(=O)NCC3(c4ccc(-c5ccccc5)cc4)CCOCC3)cc2)n1
3. COc1cccc(-c2csc(C3(CNC(=O)c4ccc(Cn5nc(C)cc5C)cc4)CCOCC3)n2)c1
4. Cn1ccc(Nc2ccc(C(=O)NCC3(c4nc(-c5ccccc5)cs4)CCOCC3)cc2)n1
5. Cc1cc(C)n(Cc2ccc(C(=O)NCC3(c4nc(-c5ccccc5)cs4)CCOCC3)cc2)n1
6. O=C(NCC1(c2nc(-c3ccccc3)cs2)CCOCC1)c1ccc(-c2cnco2)cc1
7. Cc1cc(C)n(Cc2ccc(C(=O)NCC3(c4ccc5c(c4)OCO5)CCOCC3)cc2)n1
8. Cn1c(Nc2ccc(C(=O)NCC3(c4nc(-c5ccccc5)cs4)CCOCC3)cc2)nc2ccccc21

Completion:
> 100 µM
79.4 µM
50.1 µM
79.4 µM
100 µM
79.4 µM
> 100 µM
20 µM

Field: CC50. Fill in for each record below.
1. Cc1cc(C)n(Cc2ccc(C(=O)NCC3(c4ccccn4)CCOCC3)cc2)n1
2. O=C(NCC1(c2nc(-c3ccccc3)cs2)CCOCC1)c1ccc(N2CCOCC2)cc1
3. O=C(NCC1(c2nc(-c3ccccc3)cs2)CCOCC1)c1ccc(Nc2ccccn2)cc1
4. O=C(NCC1(c2nc(-c3ccccc3)cs2)CCOCC1)c1ccc(Nc2nncs2)cc1
5. Cc1cc(C)n(-c2ccc(C(=O)NCC3(c4nc(-c5ccccc5)cs4)CCOCC3)cc2)n1
6. COc1ccccc1-c1csc(C2(CNC(=O)c3ccc(Cn4nc(C)cc4C)cc3)CCOCC2)n1

Completion:
["> 100 µM", "> 100 µM", "63.1 µM", "63.1 µM", "87.1 µM", "50.1 µM"]

----------
Test: Kinetic solubility of compound in DMSO/phosphate buffered saline at pH7.4 by chemiluminescent nitrogen detection method
Type: physicochemical
Conditions: pH 7.4, read-out: Kinetic_solubility
metric: log10 of solubility kinetic (log10 of the value in µM)
# log10 transformed; quantity=solubility kinetic; unit=µM

COc1cccc(-c2csc(C3(CNC(=O)c4ccc(Cn5nc(C)cc5C)cc4)CCOCC3)n2)c1 | 1.86
O=C(NCC1(c2nc(-c3ccccc3)cs2)CCOCC1)c1ccc(Nc2ccccn2)cc1 | 1.08
Cc1cc(C)n(Cc2ccc(C(=O)NCC3(c4nc(-c5ccccc5)cs4)CCOCC3)cc2)n1 | 2.06

Field: log10 of solubility kinetic. Fill in for each record below.
1. COc1ccccc1-c1csc(C2(CNC(=O)c3ccc(Cn4nc(C)cc4C)cc3)CCOCC2)n1
2. Cn1c(Nc2ccc(C(=O)NCC3(c4nc(-c5ccccc5)cs4)CCOCC3)cc2)nc2ccccc21
3. O=C(NCC1(c2nc(-c3ccccc3)cs2)CCOCC1)c1ccc(N2CCOCC2)cc1
4. Cc1cc(C)n(Cc2ccc(C(=O)NCC3(c4ccc(-c5ccccc5)cc4)CCOCC3)cc2)n1

Completion:
1.89
1.00
2.14
1.89
